FYI, the data here is from ChEMBL document CHEMBL3804761.

Record form. Attribute: LC50. Fill in for each entry.
- TEST NAME: Growth inhibition of human OVCAR3 cells incubated for 48 hrs by sulforhodamine B assay
- Format: functional
- ASSAY CONTEXT: OVCAR-3, 48 h

Give its LC50 value. Item: CC(C)[C@@]12C[C@@H](NC(=O)CO)[C@@](C)(O1)[C@@H]1CC[C@@H](C)[C@H]1[C@@H]2OC(=O)/C=C/C1CCCCC1
> 44.7 µM

Give its LC50 value. Item: CC(C)[C@@]12C[C@@H](NC(=O)CO)[C@@](C)(O1)[C@@H]1CC[C@@H](C)[C@H]1[C@@H]2OC(=O)c1ccc2ccccc2c1
57.5 µM

Give its LC50 value. Item: C/C(=C\C(=O)O[C@H]1[C@@H]2[C@H](C)CC[C@H]2[C@]2(C)O[C@@]1(C(C)C)C[C@H]2NC(=O)CO)c1ccccc1
> 100 µM

Give its LC50 value. Item: CC(C)[C@@]12C[C@@H](NC(=O)CO)[C@@](C)(O1)[C@@H]1CC[C@@H](C)[C@H]1[C@@H]2OC(=O)/C=C/c1ccccc1
> 50.1 µM

----------
- TEST NAME: Growth inhibition of human OVCAR5 cells incubated for 48 hrs by sulforhodamine B assay
- Type: functional
- ASSAY CONTEXT: OVCAR-5, 48 h, read-out: pTGI (converted)
OBSERVATION TYPE: TGI

Give its TGI value. Item: CC(C)[C@@]12C[C@@H](NC(=O)CO)[C@@](C)(O1)[C@@H]1CC[C@@H](C)[C@H]1[C@@H]2OC(=O)/C=C/c1ccccc1
> 50.1 µM

Give its TGI value. Item: CC(C)[C@@]12C[C@@H](NC(=O)CO)[C@@](C)(O1)[C@@H]1CC[C@@H](C)[C@H]1[C@@H]2OC(=O)/C=C/C1CCCCC1
> 44.7 µM

Give its TGI value. Item: CC(C)[C@@]12C[C@@H](NC(=O)CO)[C@@](C)(O1)[C@@H]1CC[C@@H](C)[C@H]1[C@@H]2OC(=O)c1ccc2ccccc2c1
28.8 µM

Give its TGI value. Item: C/C(=C\C(=O)O[C@H]1[C@@H]2[C@H](C)CC[C@H]2[C@]2(C)O[C@@]1(C(C)C)C[C@H]2NC(=O)CO)c1ccccc1
> 100 µM

----------
- Test system: M14
- TEST NAME: Growth inhibition of human M14 cells incubated for 48 hrs by sulforhodamine B assay
- Format: functional
- ASSAY CONTEXT: M14, 48 h, read-out: pTGI (converted)
OBSERVATION TYPE: TGI

Give its TGI value. Item: CC(C)[C@@]12C[C@@H](NC(=O)CO)[C@@](C)(O1)[C@@H]1CC[C@@H](C)[C@H]1[C@@H]2OC(=O)/C=C/c1ccccc1
> 50.1 µM

Give its TGI value. Item: C/C(=C\C(=O)O[C@H]1[C@@H]2[C@H](C)CC[C@H]2[C@]2(C)O[C@@]1(C(C)C)C[C@H]2NC(=O)CO)c1ccccc1
> 100 µM

Give its TGI value. Item: CC(C)[C@@]12C[C@@H](NC(=O)CO)[C@@](C)(O1)[C@@H]1CC[C@@H](C)[C@H]1[C@@H]2OC(=O)/C=C/C1CCCCC1
> 44.7 µM

Give its TGI value. Item: CC(C)[C@@]12C[C@@H](NC(=O)CO)[C@@](C)(O1)[C@@H]1CC[C@@H](C)[C@H]1[C@@H]2OC(=O)c1ccc2ccccc2c1
31.6 µM
